TEST METHOD NOTES: self-splicing fitness, log relative to wild type (ln ratio); higher = more splicing; Tetrahymena group I intron in knt gene, E. coli kanamycin selection, DiMSum; sequences stand for … in CUCUCU…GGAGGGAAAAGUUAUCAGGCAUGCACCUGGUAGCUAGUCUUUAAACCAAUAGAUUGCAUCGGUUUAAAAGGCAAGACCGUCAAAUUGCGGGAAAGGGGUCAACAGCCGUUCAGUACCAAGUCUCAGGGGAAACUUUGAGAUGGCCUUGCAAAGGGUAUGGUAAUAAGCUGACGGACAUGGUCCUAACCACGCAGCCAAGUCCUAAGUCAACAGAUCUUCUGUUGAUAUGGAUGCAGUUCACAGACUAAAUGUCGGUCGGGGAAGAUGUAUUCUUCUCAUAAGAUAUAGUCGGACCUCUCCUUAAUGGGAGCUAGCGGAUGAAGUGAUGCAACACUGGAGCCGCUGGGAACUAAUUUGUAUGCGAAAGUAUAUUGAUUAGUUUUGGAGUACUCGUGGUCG;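 note: selection with 25 µg/mL kanamycin versus none on LB agar overnight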
STATED CONDITIONS: 30 °C
Attribute: self-splicing fitness (ln)
Lab note: jot the number down without any unit.

Prompt line: What value of self-splicing fitness (ln) has been recorded for this entry: `CUGAAGCAAUAUUACGUCGC`
Response line: -3.18

Others:
Prompt line: What value of self-splicing fitness (ln) has been recorded for this entry: `CCACAGCAAUAUUACGCUUG`
Response line: -2.66

Prompt line: What value of self-splicing fitness (ln) has been recorded for this entry: `UAGCAGCAAUAUUACGCGAU`
Response line: -2.94

Prompt line: What value of self-splicing fitness (ln) has been recorded for this entry: `CAGAAGCAAUAUUACGUGUG`
Response line: -3.01

Prompt line: What value of self-splicing fitness (ln) has been recorded for this entry: `GGUCAGCAAUAUUACGCGGU`
Response line: -3.97

Prompt line: What value of self-splicing fitness (ln) has been recorded for this entry: `GCAGAGCAAUAUUACGGUAA`
Response line: -3.52

Prompt line: What value of self-splicing fitness (ln) has been recorded for this entry: `AACCAGCAAUAUUACGGUAA`
Response line: -0.741

Prompt line: What value of self-splicing fitness (ln) has been recorded for this entry: `GUGAAGCAAUAUUACGGUCA`
Response line: -0.465

Prompt line: What value of self-splicing fitness (ln) has been recorded for this entry: `GAUAAGCAAUAUUACGCCGG`
Response line: -1.66

Prompt line: What value of self-splicing fitness (ln) has been recorded for this entry: `GGACAGCAAUAUUACGCCGU`
Response line: -4.23

Prompt line: What value of self-splicing fitness (ln) has been recorded for this entry: `CACUAGCAAUAUUACGCGCA`
Response line: -2.52

Prompt line: What value of self-splicing fitness (ln) has been recorded for this entry: `AGCCAGCAAUAUUACGCAAC`
Response line: -4.16

Prompt line: What value of self-splicing fitness (ln) has been recorded for this entry: `AUUCAGCAAUAUUACGUGGA`
Response line: -2.72

Prompt line: What value of self-splicing fitness (ln) has been recorded for this entry: `UUUAAGCAAUAUUACGUCGA`
Response line: -0.771

Prompt line: What value of self-splicing fitness (ln) has been recorded for this entry: `UCAGAGCAAUAUUACGCUUC`
Response line: -1.74

Prompt line: What value of self-splicing fitness (ln) has been recorded for this entry: `GAGGAGCAAUAUUACGUAAA`
Response line: -3.86

Prompt line: What value of self-splicing fitness (ln) has been recorded for this entry: `AGCCAGCAAUAUUACGGUUG`
Response line: -0.979

Prompt line: What value of self-splicing fitness (ln) has been recorded for this entry: `UACCAGCAAUAUUACGGUCC`
Response line: -1.55

Prompt line: What value of self-splicing fitness (ln) has been recorded for this entry: `ACUGAGCAAUAUUACGUCAU`
Response line: -4.08

Prompt line: What value of self-splicing fitness (ln) has been recorded for this entry: `GAGAAGCAAUAUUACGCCCA`
Response line: -0.503

----------
TEST METHOD NOTES: self-splicing fitness, log relative to wild type (ln ratio); higher = more splicing; Tetrahymena group I intron in knt gene, E. coli kanamycin selection, DiMSum; sequences stand for … in CUCUCU…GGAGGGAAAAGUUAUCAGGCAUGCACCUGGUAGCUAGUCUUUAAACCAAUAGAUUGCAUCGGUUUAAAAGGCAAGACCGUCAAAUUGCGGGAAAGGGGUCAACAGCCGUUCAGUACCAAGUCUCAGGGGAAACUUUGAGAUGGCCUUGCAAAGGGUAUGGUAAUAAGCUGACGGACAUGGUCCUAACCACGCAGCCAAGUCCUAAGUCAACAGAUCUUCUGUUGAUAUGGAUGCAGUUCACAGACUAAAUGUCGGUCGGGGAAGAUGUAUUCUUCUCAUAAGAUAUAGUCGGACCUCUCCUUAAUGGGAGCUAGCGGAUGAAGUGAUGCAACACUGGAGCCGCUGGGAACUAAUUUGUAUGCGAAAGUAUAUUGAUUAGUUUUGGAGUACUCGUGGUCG
STATED CONDITIONS: 37 °C
Attribute: self-splicing fitness (ln)
Lab note: jot the number down without any unit.

Some sequences with known self-splicing fitness (ln) results, for comparison:
Prompt line: What value of self-splicing fitness (ln) has been recorded for this entry: `AUCGAGCAAUAUUACGUAGG`
Response line: -2.04

Prompt line: What value of self-splicing fitness (ln) has been recorded for this entry: `UCUUAGCAAUAUUACGACUC`
Response line: -1.03

Others:
Prompt line: What value of self-splicing fitness (ln) has been recorded for this entry: `AGGCAGCAAUAUUACGGGAU`
Response line: -1.39

Prompt line: What value of self-splicing fitness (ln) has been recorded for this entry: `UUCGAGCAAUAUUACGACUA`
Response line: -1.15

Prompt line: What value of self-splicing fitness (ln) has been recorded for this entry: `AAGUAGCAAUAUUACGUCUC`
Response line: -0.405

Prompt line: What value of self-splicing fitness (ln) has been recorded for this entry: `CAAUAGCAAUAUUACGCUGA`
Response line: -1.85

Prompt line: What value of self-splicing fitness (ln) has been recorded for this entry: `CGUAAGCAAUAUUACGCGGU`
Response line: -1.69

Prompt line: What value of self-splicing fitness (ln) has been recorded for this entry: `UAGCAGCAAUAUUACGAUUC`
Response line: -2.94

Prompt line: What value of self-splicing fitness (ln) has been recorded for this entry: `GAUAAGCAAUAUUACGUGCA`
Response line: -1.06

Prompt line: What value of self-splicing fitness (ln) has been recorded for this entry: `AGGCAGCAAUAUUACGGAAC`
Response line: -2.29

----------
TEST METHOD NOTES: self-splicing fitness, log relative to wild type (ln ratio); higher = more splicing; Tetrahymena group I intron in knt gene, E. coli kanamycin selection, DiMSum; sequences stand for … in CUCUCU…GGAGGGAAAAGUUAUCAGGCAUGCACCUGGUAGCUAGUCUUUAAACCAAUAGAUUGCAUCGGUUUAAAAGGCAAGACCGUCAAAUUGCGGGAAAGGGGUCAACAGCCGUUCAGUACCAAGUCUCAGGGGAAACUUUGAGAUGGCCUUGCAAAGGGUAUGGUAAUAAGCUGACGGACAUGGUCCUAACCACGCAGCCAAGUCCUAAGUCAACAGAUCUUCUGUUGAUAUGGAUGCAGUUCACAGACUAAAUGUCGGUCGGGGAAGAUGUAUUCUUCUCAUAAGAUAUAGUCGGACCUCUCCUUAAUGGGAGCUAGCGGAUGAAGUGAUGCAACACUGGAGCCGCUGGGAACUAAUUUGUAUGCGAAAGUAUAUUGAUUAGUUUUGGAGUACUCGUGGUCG
STATED CONDITIONS: 30 °C
Classify as follows. Reported self-splicing fitness (ln) greater than or equal to -2: criterion met. Reported self-splicing fitness (ln) below: criterion not met.

Past entries and their recorded results:
Prompt line: Reported self-splicing fitness (ln) at or above -2? `UCCUAGCAAUAUUACGAGAC`
Response line: criterion not met

Prompt line: Reported self-splicing fitness (ln) at or above -2? `AUGUAGCAAUAUUACGUUCG`
Response line: criterion met

Prompt line: Reported self-splicing fitness (ln) at or above -2? `CUAUAGCAAUAUUACGACCG`
Response line: criterion met

Prompt line: Reported self-splicing fitness (ln) at or above -2? `ACGCAGCAAUAUUACGGCGG`
Response line: criterion not met

Prompt line: Reported self-splicing fitness (ln) at or above -2? `GUACAGCAAUAUUACGUAUU`
Response line: criterion not met

Others:
Prompt line: Reported self-splicing fitness (ln) at or above -2? `GAUAAGCAAUAUUACGCUCU`
Response line: criterion not met

Prompt line: Reported self-splicing fitness (ln) at or above -2? `UAGAAGCAAUAUUACGCCUC`
Response line: criterion not met

Prompt line: Reported self-splicing fitness (ln) at or above -2? `AAGCAGCAAUAUUACGCCCC`
Response line: criterion met
